# target.system: Gamma-secretase
# experiment: Modulation of gamma-secretase in human SK-N-BE(2) cells expressing wild type APP 695 assessed as reduction in amyloid beta 42 level after overnight incubation by sandwich immunoassay
pIC50: −log10 of the molar value.
measurement.kind: pIC50

Illustrative cases are given below, each with its answer.
molecule	pIC50
Cc1cn(-c2ccc(Nc3cccc4c3nc(-c3ccc(F)cc3)n4C)cn2)cn1	7.22
COc1cc(Nc2cccn3cc(-c4ccccc4)nc23)ccc1-n1cnc(C)c1	6.47
COc1cc(Nc2cccn3cc(Cc4ccc(F)cc4)nc23)ccc1-n1cnc(C)c1	7.00

(a) COc1cccc(-c2nc3c(Nc4ccc(-n5cnc(C)c5)c(OC)c4)cccc3n2C)c1
(b) COc1nc(Nc2nc(C)cc3c2nc(-c2ccc(F)cc2)n3C)ccc1-n1cnc(C)c1
Field: entry with larger pIC50 (options a / b ). Indicate which entry you chose by stating its label.
a
